target: FPTase (H-Ras substrate) (UniProt P29702+P49355); experiment: in vitro FTase Inhibition Assay, H-Ras as substrate for farnesylation; conditions: H-Ras used as substrate for farnesylation
pIC50: −log10 of the molar value.
attribute_measured: pIC50

Asked: I would be grateful if you could share the reported pIC50 for COc1ccc(S(=O)(=O)C2(CCCC#Cc3ccccc3Cl)SC(=O)NC2=O)cc1 (stereo not drawn) .
Given back: 7.52 to 8.00

Asked: Now try COc1ccc(S(=O)(=O)C2(CCCC#Cc3ccc(C#N)cc3)SC(=O)NC2=O)cc1 (stereo not drawn) .
Given back: 6.82

Asked: Same thing, different molecule: COc1ccc(S(=O)(=O)C2(CCCC#Cc3cc(NC(=O)OCc4ccc([N+](=O)[O-])cc4)ccc3C)SC(=O)NC2=O)cc1 (stereo not drawn)
Given back: 7.49 to 8.49

Asked: Entry to check: COc1ccc(S(=O)(=O)C2(CCCC#Cc3cc(NC(=O)OCC(C)(C)C)ccc3C)SC(=O)N(C(=O)OCC(C)(C)C)C2=O)cc1 (stereo not drawn)
Given back: 8.46 to 8.52

Asked: What about this molecule? COc1ccc(S(=O)(=O)C2(CCCC#Cc3cc(NC(=O)Oc4ccc(Cl)cc4)ccc3C)SC(=O)NC2=O)cc1 (stereo not drawn)
Given back: 7.49 to 7.96

Asked: One more molecule: COc1ccc(S(=O)(=O)C2(CCCC#Cc3ccc(OC(F)(F)F)cc3)SC(=O)NC2=O)cc1 (stereo not drawn)
Given back: 6.82 to 7.15

Asked: Lookup CC(=O)Nc1ccc(S(=O)(=O)C2(CCCC#Cc3ccc(Cl)cc3)SC(=O)NC2=O)cc1 (stereo not drawn)
Given back: 6.74 to 6.89

Asked: Note, next up: Cc1cc([N+](=O)[O-])ccc1C#CCCCC1(S(=O)(=O)c2ccc(Oc3ccccc3)cc2)SC(=O)NC1=O (stereo not drawn)
Given back: 7.00

Asked: Now consider COc1ccc(S(=O)(=O)C2(CCCC#Cc3cc(NC(=O)OCc4ccccc4)ccc3C)SC(=O)N(C(=O)OCc3ccccc3)C2=O)cc1 (stereo not drawn) .
Given back: 7.30 to 7.52

Asked: Thanks! And COc1ccc(S(=O)(=O)C2(CCCC#Cc3cc(NC(=O)Nc4ccc(Cl)cc4)ccc3C)SC(=O)NC2=O)cc1 (stereo not drawn) ?
Given back: 7.00

Asked: Next up: Cc1cc(Br)ccc1C#CCCCC1(S(=O)(=O)c2ccc(I)cc2)SC(=O)NC1=O (stereo not drawn)
Given back: 7.39 to 7.40

Asked: Again, but for O=C1NC(=O)C(CCCC#Cc2cc(Cl)ccc2Cl)(S(=O)(=O)c2ccc(I)cc2)S1 (stereo not drawn)
Given back: 6.49 to 7.92

Asked: Ok, now O=C1NC(=O)C(CCCC#Cc2ccc(Cl)cc2)(Sc2ccc(F)cc2)S1 (stereo not drawn)
Given back: 6.15

Asked: Next entry: COc1ccc(S(=O)(=O)C2(CCCC#Cc3cc(NC(=O)OCC(C)C)ccc3C)SC(=O)NC2=O)cc1 (stereo not drawn)
Given back: 8.00 to 8.30

Asked: Now the molecule Cc1ccc(Cl)cc1C#CCCCC1(S(=O)(=O)c2ccc(OC(F)(F)F)cc2)SC(=O)NC1=O (stereo not drawn)
Given back: 6.77 to 6.85

This collection of values is drawn from patent US6784184B2.
